Tested on: Colo-205
Test: MTS cell growth inhibition assay
Format: cell-based
Conditions: Homo sapiens, 96 h, Colo-205 colorectal, BRAF mutated, four days
pIC50: −log10 of the molar value.
Measured Endpoint: pIC50

IN: Can you look up the measured pIC50 of CCNc1cc(O)c2c(c1)/C=C/C[C@H](O)[C@H](O)C(=O)/C=C\[C@@H](C)[C@H](C)OC2=O for me?
OUT: > 7.00

* * *

Tested on: IL-8 secretion by LOX human melanoma cells
Experiment: IL-8 secretion by LOX melanoma cells (ELISA)
Format: cell-based
Conditions: Homo sapiens; LOX melanoma cell line, 24 hours; read-out: mean calculated IC50, IL-8 protein level
Measured Endpoint: pIC50
Give only the number. pIC50 is defined as minus log10 of concentration in molar units.

IN: Find the measured pIC50: item CCNc1cc(O)c2c(c1)/C=C/C[C@H](O)[C@H](O)C(=O)/C=C\[C@@H](C)[C@H](C)OC2=O , target or system IL-8 secretion by LOX human melanoma cells.
OUT: 7.98

src = patent US20160291027A1
